pIC50: −log10 of the molar value.
These records show pIC50 for UniProt:B4URF0.

Chemical String | pIC50
CCC(CC)O[C@@H]1C=C(C(=O)O)C[C@H](N(Cc2cccs2)C(=N)N)[C@H]1NC(C)=O | 6.68
CCC(CC)O[C@@H]1C=C(C(=O)O)C[C@H](NCc2ccc(-c3cccs3)cc2)[C@H]1NC(C)=O | 5.45
CCC(CC)O[C@@H]1C=C(C(=O)O)C[C@H](NCc2ccccc2)[C@H]1NC(C)=O | 5.61
C=CCOc1ccccc1CN[C@H]1CC(C(=O)O)=C[C@@H](OC(CC)CC)[C@@H]1NC(C)=O | 5.33
CCC(CC)O[C@@H]1C=C(C(=O)O)C[C@H](NCCCN)[C@H]1NC(C)=O | 6.02
CCC(CC)O[C@@H]1C=C(C(=O)O)C[C@H](NCc2cccs2)[C@H]1NC(C)=O | 6.13
CCC(CC)O[C@@H]1C=C(C(=O)O)C[C@H](N(Cc2ccc(-c3ccccc3)cc2)C(=N)N)[C@H]1NC(C)=O | 6.33
CCC(CC)O[C@@H]1C=C(C(=O)O)C[C@H](NCc2ccccc2Cl)[C@H]1NC(C)=O | 6.01
CCCCN[C@H]1CC(C(=O)O)=C[C@@H](OC(CC)CC)[C@@H]1NC(C)=O | 5.64

* * *

These records show pIC50 for Neuraminidase (Influenza A virus, UniProt B4URF0).
pIC50: −log10 of the molar value.

Chemical String | Rel | pIC50
CCC(CC)O[C@@H]1C=C(C(=O)O)C[C@H](NCCCc2ccccc2)[C@H]1NC(C)=O | < | 5.30
CCC(CC)O[C@@H]1C=C(C(=O)O)C[C@H](NC(=N)N)[C@H]1NC(C)=O | = | 8.19
CCC(CC)O[C@@H]1C=C(C(=O)O)C[C@H](N(Cc2ccc(C(C)C)cc2)C(=N)N)[C@H]1NC(C)=O | = | 5.63
CCC(CC)O[C@@H]1C=C(C(=O)O)C[C@H](NCc2ccc(-c3ccccc3)cc2)[C@H]1NC(C)=O | = | 5.92
CCC(CC)O[C@@H]1C=C(C(=O)O)C[C@H](NCC(C)C)[C@H]1NC(C)=O | < | 5.30
CCCN(C(=N)N)[C@H]1CC(C(=O)O)=C[C@@H](OC(CC)CC)[C@@H]1NC(C)=O | < | 5.30
CCC(CC)O[C@@H]1C=C(C(=O)O)C[C@H](NCc2ccccc2OC)[C@H]1NC(C)=O | = | 5.79

* * *

These records show IC50 for Neuraminidase (Influenza A virus).

Chemical String | Rel | IC50 / µM
CCC(CC)CN(C(=N)N)[C@H]1CC(C(=O)O)=C[C@@H](OC(CC)CC)[C@@H]1NC(C)=O | > | 5
CCC(CC)O[C@@H]1C=C(C(=O)O)C[C@H](N(Cc2ccccc2OC)C(=N)N)[C@H]1NC(C)=O | = | 0.49
CCC(CC)O[C@@H]1C=C(C(=O)O)C[C@H](NC/C=C/c2ccccc2)[C@H]1NC(C)=O | = | 4.02
CCCCCN(C(=N)N)[C@H]1CC(C(=O)O)=C[C@@H](OC(CC)CC)[C@@H]1NC(C)=O | > | 5

* * *

Target Or Test System: Neuraminidase (Influenza A virus)
Method Notes: Binding affinity to Influenza A virus H3N2 Neuraminidase N1
Property Name: Ki (µM)

Compound | Target Or Test System | Endpoint Result
CC(=O)N[C@H]1C([C@H](O)[C@H](O)CO)OC(C(=O)O)=C(C/C=C/c2ccc(C)cc2)[C@@H]1O (stereo partly specified) | Neuraminidase (Influenza A virus) | 219

* * *

Target Or Test System: Neuraminidase (Influenza A virus, UniProt A5Z252)
Method Notes: Inhibition of Influenza A virus A/chicken/china/1220/2012(H5N1) Neuraminidase N1
Property Name: log10 of IC50 (log10 of the value in nM)

Chemical String | log10 of IC50
CCC(CC)O[C@@H]1C=C(C(=O)O)C[C@H](NC(=N)N)[C@H]1NC(C)=O | 0.84
CCC(CC)O[C@@H]1C=C(C(=O)O)C[C@H](NCc2ccccc2OCc2ccco2)[C@H]1NC(C)=O | 1.77
CCC(CC)O[C@@H]1C=C(C(=O)O)C[C@H](N(Cc2ccccc2)C(=N)N)[C@H]1NC(C)=O | 3.07
CCC(CC)CN(C(=N)N)[C@H]1CC(C(=O)O)=C[C@@H](OC(CC)CC)[C@@H]1NC(C)=O | 2.98
CCC(CC)O[C@@H]1C=C(C(=O)O)C[C@H](NCc2ccccc2)[C@H]1NC(C)=O | 0.85
CCC(CC)O[C@@H]1C=C(C(=O)O)C[C@H](N(CCC(C)C)C(=N)N)[C@H]1NC(C)=O | 2.57
CCC(CC)O[C@@H]1C=C(C(=O)O)C[C@H](NCc2ccccc2Cl)[C@H]1NC(C)=O | 0.56

* * *

Target Or Test System: UniProtKB B4URF0

Compound | Measurement Unit | Ki
CC(=O)N[C@H]1C([C@H](O)[C@H](O)CO)OC(C(=O)O)=C(C/C=C/c2ccc(C)cc2)[C@@H]1O (stereo partly specified) | µM | 1.7

* * *

Target Or Test System: Neuraminidase (Influenza A virus, UniProt A5Z252)
Method Notes: Inhibition of Influenza A virus A/chicken/china/1220/2012(H5N1) Neuraminidase N1
pIC50: −log10 of the molar value.
Property Name: pIC50

Chemical String | Endpoint Result
CCC(CC)O[C@@H]1C=C(C(=O)O)C[C@H](N(Cc2ccccc2OC)C(=N)N)[C@H]1NC(C)=O | 6.26
CCC(CC)O[C@@H]1C=C(C(=O)O)C[C@H](NCc2ccc(-c3ccccc3)cc2)[C@H]1NC(C)=O | 8.72
CCC(CC)O[C@@H]1C=C(C(=O)O)C[C@H](N(CC(C)C)C(=N)N)[C@H]1NC(C)=O | 6.64
CCC(CC)O[C@@H]1C=C(C(=O)O)C[C@H](NCCCc2ccccc2)[C@H]1NC(C)=O | 7.49
CCCCCN(C(=N)N)[C@H]1CC(C(=O)O)=C[C@@H](OC(CC)CC)[C@@H]1NC(C)=O | 6.11
CCC(CC)O[C@@H]1C=C(C(=O)O)C[C@H](N(Cc2ccc(C(C)C)cc2)C(=N)N)[C@H]1NC(C)=O | 5.84
CCCCN(C(=N)N)[C@H]1CC(C(=O)O)=C[C@@H](OC(CC)CC)[C@@H]1NC(C)=O | 5.94

* * *

Reported pIC50 values for the following compounds.
Target Or Test System: Neuraminidase (Influenza A virus)
pIC50: −log10 of the molar value.

Chemical String | Rel | pIC50
CCC(CC)O[C@@H]1C=C(C(=O)O)C[C@H](NCc2ccccc2Br)[C@H]1NC(C)=O | = | 5.94
CCC(CC)O[C@@H]1C=C(C(=O)O)C[C@H](N(Cc2ccccc2)C(=N)N)[C@H]1NC(C)=O | = | 5.59
CCC(CC)O[C@@H]1C=C(C(=O)O)C[C@H](NCc2ccccc2O)[C@H]1NC(C)=O | < | 5.30
CCC(CC)O[C@@H]1C=C(C(=O)O)C[C@H](NCc2ccc(-c3ccccc3)cc2-c2ccccc2)[C@H]1NC(C)=O | = | 8.49
CCC(CC)O[C@@H]1C=C(C(=O)O)C[C@H](N(CCC(C)C)C(=N)N)[C@H]1NC(C)=O | < | 5.30
CCC(CC)O[C@@H]1C=C(C(=O)NO)C[C@H](NC(=N)N)[C@H]1NC(C)=O | = | 6.70
CCC(CC)O[C@@H]1C=C(C(=O)NO)C[C@H](N)[C@H]1NC(C)=O | = | 6.96
CCC(CC)O[C@@H]1C=C(C(=O)O)C[C@H](N(CCCc2ccccc2)C(=N)N)[C@H]1NC(C)=O | < | 5.30
CCC(CC)O[C@@H]1C=C(C(=O)O)C[C@H](NCc2ccccc2OCc2ccco2)[C@H]1NC(C)=O | = | 5.82

* * *

These records show IC50 for Neuraminidase (Influenza A virus).
Property Name: IC50 (nM)

Chemical String | Rel | Endpoint Result
CCC(CC)O[C@@H]1C=C(C(=O)O)C[C@H](N(CC(C)C)C(=N)N)[C@H]1NC(C)=O | > | 5000
CCC(CC)CN[C@H]1CC(C(=O)O)=C[C@@H](OC(CC)CC)[C@@H]1NC(C)=O | = | 300
CCC(CC)O[C@@H]1C=C(C(=O)O)C[C@H](NCc2ccccc2F)[C@H]1NC(C)=O | = | 2720
CCC(CC)O[C@@H]1C=C(C(=O)O)C[C@H](NCc2ccc(-c3ccccc3)cc2Cl)[C@H]1NC(C)=O | = | 2020
CCCCN(C(=N)N)[C@H]1CC(C(=O)O)=C[C@@H](OC(CC)CC)[C@@H]1NC(C)=O | = | 1480
